experiment.summary: NCI Yeast Anticancer Drug Screen. Data for the mlh1 rad18 strain (AID 175)
particulars: S. cerevisiae mlh1 rad18 strain growth inhibition; at 50.0 µM; active compounds read high
This is part of a sample that, as a whole, favours compounds with a hit. Of some 79,000 tested, about 15% had one in any assay.
Reported growth inhibition values are given for each entry in this list.
Numeric answer only, unit % assumed.

{"compound": "CC(C)NC(=O)OCc1c(COC(=O)NC(C)C)c2n(c1-c1ccc(Cl)c(Cl)c1)CCS2(=O)=O", "growth inhibition [%]": 8.15}
{"compound": "CC(C)(C)NC(=O)CCC(=O)O", "growth inhibition [%]": -7.3}
{"compound": "CC(=O)CC(=O)NC12CC3CC(CC(C3)C1)C2", "growth inhibition [%]": -1.55}
{"compound": "CCCC1([N+](=O)[O-])CCC(C)(O)C(C(C)=O)C1 (configuration not stated)", "growth inhibition [%]": 17.4}
{"compound": "CC1=CCC(C(C)(C)NC(=O)c2ccccc2)C/C1=N/O (configuration not stated)", "growth inhibition [%]": -66.5}
{"compound": "Nc1ncc2c(n1)-c1ccccc1OC2N1CCOCC1 (configuration not stated)", "growth inhibition [%]": -7.8}

Now turn to the next compound.
q: Quick one: growth inhibition of COC(=O)c1cc([N+](=O)[O-])c(Br)s1 ?
a: 99.3
